B1: LCOR (parent)
chain: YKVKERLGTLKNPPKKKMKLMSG

variants of: B1; test: protein stability index of a GFP-peptide fusion (GPS, HEK-293T) (PSI 1-6); higher = more stable; conditions: c terminus: native;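 also: lentivirally expressed fusions sorted by FACS into six bins by GFP to DsRed ratio, PSI derived from sequencing read proportions per bin multiplied by bin number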
# protein stability index >= 2 gives Satisfied, anything below gives Not satisfied

Is the recorded value of protein stability index equal to or greater than 2 for this variant? P13Q
Not satisfied

Record T9R ; criterion: protein stability index no lower than 2. Met?
Not satisfied

Dear colleague, could you confirm whether S22H has protein stability index at or above 2?
Satisfied

Is protein stability index at least 2? Consider R6C
Satisfied

Please tell me: is the variant Y1G at or over 2 in terms of protein stability index?
Not satisfied

Is it the case that M18N has protein stability index reaching or exceeding 2?
Satisfied

Quick check: does L7F have protein stability index greater than or equal to 2?
Not satisfied

Please indicate if the recorded protein stability index for T9I meets or exceeds 2.
Not satisfied

Tell me whether protein stability index is at least 2 here: M18A
Satisfied

Decide: is the reported value of protein stability index for G8V equal to or greater than 2?
Satisfied

Does the reported protein stability index for P13A fall at or above the 2 mark?
Satisfied

Item K11I with protein stability index of 2 or above?
Satisfied

# bool: protein stability index of L7Q >= 2
Not satisfied

Check if protein stability index >= 2 (inclusive). Item: R6E
Satisfied

Quick check: does S22K have protein stability index greater than or equal to 2?
Satisfied

# bool: protein stability index of L20M >= 2
Not satisfied

Tell me whether protein stability index is at least 2 here: P13K
Satisfied

Is it the case that L7D has protein stability index reaching or exceeding 2?
Satisfied

Answer whether protein stability index of T9N is greater than or equal to 2.
Satisfied

Tell me whether protein stability index is at least 2 here: S22A
Satisfied

Quick check: does Y1K have protein stability index greater than or equal to 2?
Not satisfied

Exam item: decide whether the reported protein stability index for K16E is at least 2.
Satisfied

Would you say G23Q shows protein stability index at minimum 2?
Satisfied

Hello, I need to know if M21L has measured protein stability index not below 2. Thanks!
Satisfied

Is it the case that M18D has protein stability index reaching or exceeding 2?
Satisfied

State whether the measured protein stability index reaches 2, counting equality as reaching it, for K4V
Not satisfied

Hi, just wondering whether E5K shows protein stability index of 2 or higher.
Satisfied

Can L7C be said to have protein stability index at or above 2?
Satisfied

Confirm if protein stability index reported for the variant K15S is 2 or above.
Satisfied

Could you verify whether the entry P14S shows protein stability index of no less than 2?
Satisfied

Hi, just wondering whether Y1P shows protein stability index of 2 or higher.
Not satisfied

Hello, I need to know if R6P has measured protein stability index not below 2. Thanks!
Satisfied

Decide: protein stability index of K4W >= 2?
Satisfied

Can L10C be said to have protein stability index at or above 2?
Satisfied

Is protein stability index at least 2? Consider K17D
Not satisfied

I'd appreciate it if you could say whether M21G has protein stability index at least equal to 2.
Satisfied

Item E5V with protein stability index of 2 or above?
Satisfied
